Data credit: patent US20250074871A1

# assayed system: 5-HT1D (Homo sapiens)
# Sequence (P28221 whole entry, species assumed): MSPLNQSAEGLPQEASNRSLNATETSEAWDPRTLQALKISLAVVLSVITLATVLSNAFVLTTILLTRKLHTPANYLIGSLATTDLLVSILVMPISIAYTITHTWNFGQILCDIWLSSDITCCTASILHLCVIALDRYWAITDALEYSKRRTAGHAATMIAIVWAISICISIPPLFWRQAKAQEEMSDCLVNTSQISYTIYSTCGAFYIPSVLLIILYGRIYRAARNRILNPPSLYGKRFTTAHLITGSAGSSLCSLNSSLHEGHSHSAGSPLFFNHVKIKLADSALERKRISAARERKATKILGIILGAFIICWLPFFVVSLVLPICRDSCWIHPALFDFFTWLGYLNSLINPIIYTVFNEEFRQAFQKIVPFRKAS
# method notes: 5-HT receptor activity panel (Table 3)
# Assay type: cell-based
# cond: Table 3; read-out: 5-HT1D EC50

| compound structure string | assayed system | EC50 [nM] |
| --- | --- | --- |
| CSc1ccccc1CNCCc1ccc(C#N)cc1O | 5-HT1D (Homo sapiens) | 379 |

---

# method notes: plasma and brain PK in mice
# Format: in vivo
# cond: mouse, plasma, read-out: T1/2 Vz (converted)
half-life values by entry
property name: half-life (min)

| compound | test result |
| --- | --- |
| COc1cc(C(F)(F)F)ccc1CCNCc1ccccc1O [Cpd #93] | 54 |
| CSc1ccccc1CNCCc1ccc(C#N)cc1O [Cpd #109] | 36 |

---

# assayed system: 5-HT2A receptor (Homo sapiens, UniProt P28223)
# Construct: expressed in transfected cells; host or cells: HEK293T
# Sequence (P28223 whole entry): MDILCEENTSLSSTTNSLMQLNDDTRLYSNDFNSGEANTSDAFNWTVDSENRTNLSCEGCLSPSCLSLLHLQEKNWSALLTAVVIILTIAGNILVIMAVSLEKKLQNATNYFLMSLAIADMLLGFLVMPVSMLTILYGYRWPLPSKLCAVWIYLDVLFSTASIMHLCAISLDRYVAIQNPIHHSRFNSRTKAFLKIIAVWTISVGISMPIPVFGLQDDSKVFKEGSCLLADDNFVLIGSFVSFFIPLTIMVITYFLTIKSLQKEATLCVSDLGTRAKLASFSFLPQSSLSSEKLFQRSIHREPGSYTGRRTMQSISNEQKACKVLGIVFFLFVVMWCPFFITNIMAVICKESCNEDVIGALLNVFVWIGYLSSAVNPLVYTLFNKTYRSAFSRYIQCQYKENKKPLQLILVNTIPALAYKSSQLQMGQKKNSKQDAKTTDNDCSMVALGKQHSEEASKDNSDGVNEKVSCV
# method notes: 5-HT2A Gq dissociation BRET functional assay
# Assay type: cell-based
# cond: Table 2; normalized to % 5-HT stimulation

| molecule | assayed system | 5-HT2A BRET Eff % (%) |
| --- | --- | --- |
| COc1cc(C#N)ccc1CCNCc1ccccc1SC | 5-HT2A receptor (Homo sapiens, UniProt P28223) | 99 |
| N#Cc1ccc(CCNCc2ccccc2OC(F)(F)F)c(O)c1 | 5-HT2A receptor (Homo sapiens, UniProt P28223) | 83 |
| CN(C)CCc1c[nH]c2cccc(O)c12 [psilocin, reference compound] | 5-HT2A receptor (Homo sapiens, UniProt P28223) | 82 |
| N#Cc1ccc(CCNCc2cccc3cc[nH]c23)c(O)c1 | 5-HT2A receptor (Homo sapiens, UniProt P28223) | 59 |
| Oc1cc(C(F)(F)F)ccc1CCNCc1ccccc1O | 5-HT2A receptor (Homo sapiens, UniProt P28223) | 89 |
| CSc1ccccc1CNCCc1ccc(C(F)F)cc1O | 5-HT2A receptor (Homo sapiens, UniProt P28223) | 96 |
| COc1ccc(CCNCc2ccccc2SC)c(O)c1 | 5-HT2A receptor (Homo sapiens, UniProt P28223) | 100 |
| COc1cc(C#N)ccc1CCNCc1c(Cl)cccc1Cl | 5-HT2A receptor (Homo sapiens, UniProt P28223) | 79 |
| N#Cc1ccc(CCNCc2ccccc2O)cc1 | 5-HT2A receptor (Homo sapiens, UniProt P28223) | 88 |
| Oc1cc(Cl)ccc1CCNCc1ccccc1O | 5-HT2A receptor (Homo sapiens, UniProt P28223) | 93 |
| COc1cc(C#N)ccc1CCNCc1cccc(Cl)c1 | 5-HT2A receptor (Homo sapiens, UniProt P28223) | 69 |
| COc1ccccc1CNCCc1ccc(F)cc1O | 5-HT2A receptor (Homo sapiens, UniProt P28223) | 84 |
| CCCCCc1ccc(CCNCc2ccccc2O)c(OC)c1 | 5-HT2A receptor (Homo sapiens, UniProt P28223) | 96 |
| CSc1ccc(CCNCc2ccccc2O)c(O)c1 | 5-HT2A receptor (Homo sapiens, UniProt P28223) | 92 |
| COc1cc(C#N)ccc1CCNCc1cccc2c1CCO2 | 5-HT2A receptor (Homo sapiens, UniProt P28223) | 62 |
| COc1cc(C#N)ccc1CCNCC1CC1 | 5-HT2A receptor (Homo sapiens, UniProt P28223) | 64 |
| COc1ccc(CCNCc2ccccc2O)c(OC)c1 [Cpd #96, reference compound] | 5-HT2A receptor (Homo sapiens, UniProt P28223) | 95 |
| COc1cc(C#N)ccc1CCNCc1ccccc1OC | 5-HT2A receptor (Homo sapiens, UniProt P28223) | 96 |
| N#Cc1ccc(CCNCc2ccccc2O)c(C(F)(F)F)c1 | 5-HT2A receptor (Homo sapiens, UniProt P28223) | 89 |
| COc1cc(C#N)ccc1CCNCc1cccc2occc12 | 5-HT2A receptor (Homo sapiens, UniProt P28223) | 82 |
| COc1cc(Oc2ccccc2)ccc1CCN | 5-HT2A receptor (Homo sapiens, UniProt P28223) | 87 |
| COc1cc(C#N)ccc1CCNCc1ccccc1Cl | 5-HT2A receptor (Homo sapiens, UniProt P28223) | 90 |
| COc1cc(C#N)ccc1CCNCc1ccccc1F | 5-HT2A receptor (Homo sapiens, UniProt P28223) | 81 |

---

# assayed system: 5-HT2A receptor (Homo sapiens, UniProt P28223)
# Construct: expressed in transfected cells; host or cells: HEK293T
# method notes: 5-HT2A Gq dissociation BRET functional assay
# Type: cell-based
# cond: 5-HT2A BRET EC50 (nM), Table 2; at least three replicate trials
Just a reminder that ties go to 0: only EC50 strictly below 200 nM counts as 1.

| compound | assayed system | discrete label |
| --- | --- | --- |
| N#Cc1ccc(CCNCc2ccccc2O)c(C(F)(F)F)c1 | 5-HT2A receptor (Homo sapiens, UniProt P28223) | 0 |
| COc1cc(C#N)c(F)cc1CCNCc1ccccc1O [Cpd #4] | 5-HT2A receptor (Homo sapiens, UniProt P28223) | 1 |
| N#Cc1ccc(CCNCc2ccccc2O)c(OC(F)(F)F)c1 | 5-HT2A receptor (Homo sapiens, UniProt P28223) | 0 |
| COc1cc(C#N)ccc1CCNCc1ccc(Cl)cc1 | 5-HT2A receptor (Homo sapiens, UniProt P28223) | 0 |
| CCCCCc1ccc(CCNCc2ccccc2O)c(OC)c1 | 5-HT2A receptor (Homo sapiens, UniProt P28223) | 1 |
| COc1cc(C#N)ccc1CCNCc1ccccc1F | 5-HT2A receptor (Homo sapiens, UniProt P28223) | 0 |

---

# method notes: plasma PK in dog
# Format: in vivo
# cond: Dog, IM, read-out: IM f (%)
property name: bioavailability

| compound structure string | test result |
| --- | --- |
| CSc1ccccc1CNCCc1ccc(C#N)cc1O | 120% |

---

# assayed system: 5-HT2A receptor (Homo sapiens)
# Construct: expressed in transfected cells; host or cells: HEK293T
# method notes: 5-HT2A Gq dissociation BRET functional assay
# Assay type: cell-based
# cond: Table 2; at least three replicate trials; read-out: 5-HT2A BRET EC50

| compound | assayed system | EC50 [nM] |
| --- | --- | --- |
| COc1cc(Cc2ccccc2)ccc1CCNCc1ccccc1O | 5-HT2A receptor (Homo sapiens) | 1.2 |
| Oc1ccccc1CNCC(O)c1ccc(C(F)(F)F)cc1OCc1ccccc1 (stereo not shown) [Reference Compound 1a, reference compound] | 5-HT2A receptor (Homo sapiens) | 451 |
| COc1cc(C#N)ccc1CCNC1COc2ccccc21 (stereo not shown) | 5-HT2A receptor (Homo sapiens) | 1040 |
| COc1cc(C#N)ccc1CCNCc1cccc2ncn(C)c12 | 5-HT2A receptor (Homo sapiens) | 73 |
| COc1cc(-c2cncnc2)ccc1CCNCc1ccccc1Cl | 5-HT2A receptor (Homo sapiens) | 1610 |
| COc1cc(-c2ncccn2)ccc1CCNCc1ccccc1Cl | 5-HT2A receptor (Homo sapiens) | 4890 |
| CSc1ccccc1CNCCc1ccc(C#N)cc1O | 5-HT2A receptor (Homo sapiens) | 5.1 |
| CSc1ccccc1CCCNCCc1ccc(C#N)cc1O | 5-HT2A receptor (Homo sapiens) | 423 |
| CSc1ccccc1CNCCc1ccc(O)cc1O | 5-HT2A receptor (Homo sapiens) | 518 |
| COc1cc(-c2cnoc2)ccc1CCNCc1ccccc1Cl | 5-HT2A receptor (Homo sapiens) | 270 |

---

# method notes: plasma PK in dog
# Type: in vivo
# cond: dog, read-out: Vz
This section presents compounds with their documented Vd values.

| compound structure string | Vd / L/kg |
| --- | --- |
| COc1cc(C(F)(F)F)ccc1CCNCc1ccccc1O | 7.7 |
| CSc1ccccc1CNCCc1ccc(C#N)cc1O | 4.33 |

---

# assayed system: 5-HT2C receptor (Homo sapiens, UniProt P28335)
# Construct: expressed in transfected cells; host or cells: HEK293T
# Sequence (P28335 33-458): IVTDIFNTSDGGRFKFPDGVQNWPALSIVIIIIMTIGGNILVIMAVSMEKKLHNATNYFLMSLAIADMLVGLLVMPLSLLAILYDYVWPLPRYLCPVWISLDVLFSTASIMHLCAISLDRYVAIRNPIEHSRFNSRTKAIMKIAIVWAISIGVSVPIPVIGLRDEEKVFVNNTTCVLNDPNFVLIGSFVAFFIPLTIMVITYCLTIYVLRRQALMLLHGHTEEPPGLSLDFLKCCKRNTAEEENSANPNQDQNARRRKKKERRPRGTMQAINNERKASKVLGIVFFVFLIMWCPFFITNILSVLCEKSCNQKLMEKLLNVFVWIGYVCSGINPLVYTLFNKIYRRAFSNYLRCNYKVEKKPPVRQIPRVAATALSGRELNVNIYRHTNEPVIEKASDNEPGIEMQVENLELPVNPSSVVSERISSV
# method notes: cell-based
# Format: cell-based
# cond: Table 2; normalized to % 5-HT stimulation

| molecule | assayed system | uom | 5-HT2C BRET Eff % |
| --- | --- | --- | --- |
| N#Cc1ccc(CCNCc2ccsc2Cl)c(O)c1 | 5-HT2C receptor (Homo sapiens, UniProt P28335) | % | 91 |
| N#Cc1ccc(CCNCc2cccc3ccsc23)c(O)c1 | 5-HT2C receptor (Homo sapiens, UniProt P28335) | % | 160 |
| COc1ccc(CCNCc2ccccc2SC)c(O)c1 | 5-HT2C receptor (Homo sapiens, UniProt P28335) | % | 119 |
| COc1ccc(CCNCc2ccccc2O)c(OC)c1 [Cpd #96, reference compound] | 5-HT2C receptor (Homo sapiens, UniProt P28335) | % | 109 |
| COc1cc(Oc2ccccc2)ccc1CCN | 5-HT2C receptor (Homo sapiens, UniProt P28335) | % | 107 |
| COc1cc2c(cc1CCNCc1ccccc1O)CCO2 | 5-HT2C receptor (Homo sapiens, UniProt P28335) | % | 107 |
| CSc1ccc(CCNCc2ccccc2SC)c(O)c1 | 5-HT2C receptor (Homo sapiens, UniProt P28335) | % | 110 |
| COc1ccccc1CNCCc1ccc(F)cc1O | 5-HT2C receptor (Homo sapiens, UniProt P28335) | % | 101 |
| CSc1ccccc1CNCCCc1ccc(C#N)cc1O | 5-HT2C receptor (Homo sapiens, UniProt P28335) | % | 43 |
| COc1cc(C#N)ccc1CCNCc1cccc2ncn(C)c12 | 5-HT2C receptor (Homo sapiens, UniProt P28335) | % | 7 |
| COc1cc(C#N)ccc1CCNCc1cccc2c1CCO2 | 5-HT2C receptor (Homo sapiens, UniProt P28335) | % | 78 |
